Let's look at some molecules and their measured GI50.
Test system: MDA-N
Test: NCI tumour cell line growth inhibition, 48 h
The source made the active and inactive calls. Rule as the data show it: active = GI50 up to about 1.1 µM and inactive = higher.
readoutName: GI50

>>> print(df.to_string())
                                   molecule        observedvalue
0  COC(=O)[C@@H]1N2C(=S)N(c3ccccc3)C(=O)[C@H]2SC1(C)C  > 100 µM (inactive)
1  COc1cc2nc3n(c2cc1OC)C(O)c1c(Cl)nc(SC)nc1S3 (stereo unspecified)   3.36 µM (inactive)
2  CC(C)=CCC/C(C)=C/CCC1(C)C2COC(=O)C21 (stereo unspecified)   54.7 µM (inactive)
3  CC(/C=C/C=C\C=C\C=C(/C)C(=O)NC(C)CO)=C\C(C)C(O)/C(C)=C/C(C)CCc1ccccc1 (stereo unspecified)   12.2 µM (inactive)
4  COc1ccc2c3c1OC1C(=O)C=CC4(CC2)N(C)CCC314 (stereo unspecified)   15.8 µM (inactive)
5  CC1(C)[N+]([O-])=[N+]([O-])C1(C)O (stereo unspecified)  > 100 µM (inactive)
